Assay: Hemolytic activity in human RBC assessed as hemolysis at 512 ug/ml incubated for 1 hr relative to control
Assay type: toxicity, cell-based, Erythrocyte
Conditions: human red blood cells (erythrocytes), at 512 µg/mL, read-out: Activity
quantity.name: hemolysis at 1 h, 512 ug/ml

molecule_smiles=N#C/C(=C\c1cn(CCO)c2ccccc12)S(=O)(=O)c1ccc(N)cc1 quantity_name="hemolysis at 1 h, 512 ug/ml" experimental_result="< 3%"

###

Test system: Pseudomonas aeruginosa
Experiment: Antibacterial activity against Pseudomonas aeruginosa ATCC 27853 assessed as inhibition of bacterial growth incubated for 18 hrs by two fold broth microdilution assay
Assay type: functional
quantity.name: MIC (µg/mL)

molecule_smiles=CCCCCCCCn1cc(/C=C(\C#N)S(=O)(=O)c2ccc(N)cc2)c2ccccc21 unit_abbreviation=µg/mL experimental_result=32
molecule_smiles=CC(=O)Nc1ccc(S(=O)(=O)/C(C#N)=C/c2cn(Cc3ccccc3F)c3ccccc23)cc1 unit_abbreviation=µg/mL experimental_result=16
molecule_smiles=N#C/C(=C\c1c[nH]c2ccccc12)S(=O)(=O)c1ccc(N)cc1 unit_abbreviation=µg/mL experimental_result=1
molecule_smiles=CC(=O)Nc1ccc(S(=O)(=O)/C(C#N)=C/c2c[nH]c3cc(Br)ccc23)cc1 unit_abbreviation=µg/mL experimental_result=16
molecule_smiles=Cn1cc(/C=C(\C#N)S(=O)(=O)c2ccc(N)cc2)c2ccccc21 unit_abbreviation=µg/mL experimental_result=64
molecule_smiles=CC(=O)Nc1ccc(S(=O)(=O)/C(C#N)=C/c2cn(Cc3ccc(Cl)cc3Cl)c3ccccc23)cc1 unit_abbreviation=µg/mL experimental_result=32
molecule_smiles=CC(=O)Nc1ccc(S(=O)(=O)/C(C#N)=C/c2c[nH]c3ccc([N+](=O)[O-])cc23)cc1 unit_abbreviation=µg/mL experimental_result=32
molecule_smiles=N#C/C(=C\c1cn(CCN2CCOCC2)c2ccccc12)S(=O)(=O)c1ccc(N)cc1 unit_abbreviation=µg/mL experimental_result=64
molecule_smiles=CC(=O)Nc1ccc(S(=O)(=O)/C(C#N)=C/c2cn(Cc3cccc(Cl)c3)c3ccccc23)cc1 unit_abbreviation=µg/mL experimental_result=64
molecule_smiles=N#C/C(=C\c1cn(CC2CCCCC2)c2ccccc12)S(=O)(=O)c1ccc(N)cc1 unit_abbreviation=µg/mL experimental_result=2
molecule_smiles=CCCCCn1cc(/C=C(\C#N)S(=O)(=O)c2ccc(NC(C)=O)cc2)c2ccccc21 unit_abbreviation=µg/mL experimental_result=64
molecule_smiles=N#C/C(=C\c1cn(CC2CC2)c2ccccc12)S(=O)(=O)c1ccc(N)cc1 unit_abbreviation=µg/mL experimental_result=16
molecule_smiles=C#CCn1cc(/C=C(\C#N)S(=O)(=O)c2ccc(NC(C)=O)cc2)c2ccccc21 unit_abbreviation=µg/mL experimental_result=2
molecule_smiles=N#C/C(=C\c1cn(Cc2ccc([N+](=O)[O-])cc2)c2ccccc12)S(=O)(=O)c1ccc(N)cc1 unit_abbreviation=µg/mL experimental_result=128
molecule_smiles=CC(=O)Nc1ccc(S(=O)(=O)/C(C#N)=C/c2cn(CC(=O)N3CCOCC3)c3ccccc23)cc1 unit_abbreviation=µg/mL experimental_result=256
molecule_smiles=CC(=O)Nc1ccc(S(=O)(=O)/C(C#N)=C/c2cn(CCO)c3ccccc23)cc1 unit_abbreviation=µg/mL experimental_result=8
molecule_smiles=CCCCn1cc(/C=C(\C#N)S(=O)(=O)c2ccc(NC(C)=O)cc2)c2ccccc21 unit_abbreviation=µg/mL experimental_result=8
molecule_smiles=CC(=O)Nc1ccc(S(=O)(=O)/C(C#N)=C/c2cn(CC3CCCCC3)c3ccccc23)cc1 unit_abbreviation=µg/mL experimental_result=2
molecule_smiles=N#C/C(=C\c1cn(Cc2ccccc2Cl)c2ccccc12)S(=O)(=O)c1ccc(N)cc1 unit_abbreviation=µg/mL experimental_result=2
molecule_smiles=CC(=O)Nc1ccc(S(=O)(=O)/C(C#N)=C/c2c[nH]c3cccc(Cl)c23)cc1 unit_abbreviation=µg/mL experimental_result=32
molecule_smiles=CC(=O)Nc1ccc(S(=O)(=O)/C(C#N)=C/c2cn(CC=C(C)C)c3ccccc23)cc1 unit_abbreviation=µg/mL experimental_result=8
molecule_smiles=C#CCn1cc(/C=C(\C#N)S(=O)(=O)c2ccc(N)cc2)c2ccccc21 unit_abbreviation=µg/mL experimental_result=4
molecule_smiles=CCCCCCn1cc(/C=C(\C#N)S(=O)(=O)c2ccc(NC(C)=O)cc2)c2ccccc21 unit_abbreviation=µg/mL experimental_result=8
molecule_smiles=CCCCn1cc(/C=C(\C#N)S(=O)(=O)c2ccc(N)cc2)c2ccccc21 unit_abbreviation=µg/mL experimental_result=4
molecule_smiles=CC(=O)Nc1ccc(S(=O)(=O)/C(C#N)=C/c2cn(C)c3ccccc23)cc1 unit_abbreviation=µg/mL experimental_result=64
molecule_smiles=CC(=O)Nc1ccc(S(=O)(=O)/C(C#N)=C/c2cn(Cc3ccc(F)cc3F)c3ccccc23)cc1 unit_abbreviation=µg/mL experimental_result=64
molecule_smiles=CC(=O)Nc1ccc(S(=O)(=O)/C(C#N)=C/c2cn(CC(=O)N(C(C)C)C(C)C)c3ccccc23)cc1 unit_abbreviation=µg/mL experimental_result=64
molecule_smiles=CC(=O)Nc1ccc(S(=O)(=O)/C(C#N)=C/c2cn(CCN(C)C)c3ccccc23)cc1 unit_abbreviation=µg/mL experimental_result=16
molecule_smiles=CC(=O)Nc1ccc(S(=O)(=O)/C(C#N)=C/c2cn(CC(=O)N3CCCCC3)c3ccccc23)cc1 unit_abbreviation=µg/mL experimental_result=256
molecule_smiles=CC(=O)Nc1ccc(S(=O)(=O)/C(C#N)=C/c2cn(Cc3ccc([N+](=O)[O-])cc3)c3ccccc23)cc1 unit_abbreviation=µg/mL experimental_result=256
